# TGT: Histamine H4 receptor (Homo sapiens) (UniProt Q9H3N8)
# EXPERIMENT_DESCRIPTION: Inhibition of histamine H4 receptor at 10 uM
ENDPOINT_NAME: inhibition (%)

{"columns": ["COMPOUND", "UNIT_ANNOTATION", "inhibition"],
 "data": [
  ["CN(C)C1CCc2c(c3ccccc3n2S(=O)(=O)c2cccc(Cl)c2)C1 (racemic)", "%", 10.3],
  ["COc1ccc2c(c1)c1c(n2S(=O)(=O)c2ccccc2)CCC(N(C)C)C1 (racemic)", "%", 13.9]
]}

A = CN(C)C1CCc2c(c3cc(Br)ccc3n2S(=O)(=O)c2ccccc2)C1 (racemic)
B = CN(C)C1CCc2c(c3ccccc3n2S(=O)(=O)c2cccc(C(F)(F)F)c2)C1 (racemic)
Would you kindly point out which of A and B has the smaller inhibition figure? Give the label under which the chosen entry appears.
A
(A: 3.85%, B: 18%)
